testedTarget: human α3β3γ2 GABAA receptor subtype (Homo sapiens, UniProt P18507+P28472+P34903)
Sequence (P34903 29-492): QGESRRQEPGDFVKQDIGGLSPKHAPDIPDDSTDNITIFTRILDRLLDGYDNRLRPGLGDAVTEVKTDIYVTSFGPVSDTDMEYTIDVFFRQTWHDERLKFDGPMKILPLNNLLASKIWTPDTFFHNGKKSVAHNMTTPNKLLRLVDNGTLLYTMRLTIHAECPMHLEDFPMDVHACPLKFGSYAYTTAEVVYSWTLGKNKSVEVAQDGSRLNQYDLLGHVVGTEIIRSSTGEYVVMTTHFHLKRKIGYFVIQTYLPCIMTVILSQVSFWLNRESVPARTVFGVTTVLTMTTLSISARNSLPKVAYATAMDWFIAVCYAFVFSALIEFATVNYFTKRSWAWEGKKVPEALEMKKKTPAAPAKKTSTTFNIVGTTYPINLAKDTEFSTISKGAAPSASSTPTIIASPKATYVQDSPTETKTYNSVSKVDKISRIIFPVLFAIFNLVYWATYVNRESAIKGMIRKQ
Sequence (P28472 26-473): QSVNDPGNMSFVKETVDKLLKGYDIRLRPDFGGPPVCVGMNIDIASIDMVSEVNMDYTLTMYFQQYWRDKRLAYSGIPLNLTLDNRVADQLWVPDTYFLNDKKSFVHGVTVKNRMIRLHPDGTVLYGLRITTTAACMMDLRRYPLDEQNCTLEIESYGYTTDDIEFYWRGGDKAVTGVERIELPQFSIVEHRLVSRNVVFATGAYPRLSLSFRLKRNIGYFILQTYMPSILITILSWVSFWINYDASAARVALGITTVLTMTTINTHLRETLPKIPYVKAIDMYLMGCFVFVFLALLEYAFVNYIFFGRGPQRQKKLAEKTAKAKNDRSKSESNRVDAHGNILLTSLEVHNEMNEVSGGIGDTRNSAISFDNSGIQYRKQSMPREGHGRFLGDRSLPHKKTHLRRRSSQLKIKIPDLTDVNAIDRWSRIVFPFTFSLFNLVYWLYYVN
Sequence (P18507 40-475): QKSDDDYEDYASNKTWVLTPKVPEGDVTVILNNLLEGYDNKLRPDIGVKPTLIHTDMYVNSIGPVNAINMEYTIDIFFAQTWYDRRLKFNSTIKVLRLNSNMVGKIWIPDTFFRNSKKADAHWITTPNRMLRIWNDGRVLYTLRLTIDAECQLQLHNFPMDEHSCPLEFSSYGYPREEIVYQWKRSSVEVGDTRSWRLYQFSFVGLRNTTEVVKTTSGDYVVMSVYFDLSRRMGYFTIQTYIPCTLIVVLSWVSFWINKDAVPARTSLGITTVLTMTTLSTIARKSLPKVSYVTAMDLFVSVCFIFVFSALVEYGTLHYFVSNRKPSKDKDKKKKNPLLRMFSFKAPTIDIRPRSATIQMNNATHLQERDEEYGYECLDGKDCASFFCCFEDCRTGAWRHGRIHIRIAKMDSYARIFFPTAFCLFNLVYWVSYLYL
assayName: Patch-clamp (Dynaflow) of GABA-mediated current in HEK-293 cells expressing α3β3γ2L GABAA receptor
conditionInfo: 0.003-10 μM, best fit curve, α3β3γ2L; read-out: IC50 on 100 μM GABA-mediated current response
measurementType: pIC50
When answering, recall that pIC50 equals minus log10 of the concentration in mol/L, and write that number alone.

Task item: Fill in: pIC50 of C#C[C@]1(O)CC[C@@]2(C)[C@@H](CC[C@@H]3[C@@H]2CC[C@]2(C)C(=O)CC[C@@H]32)C1 is ___
Reply: 6.10
